molecular target: UniProt:P36897; assay: Inhibition of recombinant N-terminal GST tagged human ALK5 (200 to 503 residues) expressed in baculovirus expression system using FAM-NH2-KVLTQMGSPSIRCSS[PO4]VS peptide as substrate after 90 mins by LanthaScreen TR-FRET assay
Recorded Endpoint: IC50
Kindly format the answer as number then unit.

Known results for molecules:
In [3]: df
Out[3]:
                                   molecule  assayed_target    value
0  Cc1ccc(F)c(-c2cc(Nc3ccnc4cnn(CCO)c34)c(C)cn2)n1  UniProt:P36897  12.6 nM
1  CNC(=O)n1ncc2nccc(Nc3cc(-c4cc(Cl)ccc4F)ncc3C)c21  UniProt:P36897  15.8 nM
2    COc1cccc2nccc(Nc3ccnc(-c4ccccc4)c3)c12  UniProt:P36897   631 nM
3  COc1cccc2nccc(Nc3ccnc(-c4cc(Cl)ccc4F)c3)c12  UniProt:P36897    20 nM
4  COc1cccc2nccc(Nc3cc(-c4cc(C)ccc4F)ncc3C)c12  UniProt:P36897  12.6 nM

Given item COc1cccc2nccc(Nc3cc(-c4cc(Cl)ccc4F)ncc3C)c12 , the value recorded as its IC50 is 12.6 nM

Given item Cc1cnc(-c2cc(Cl)ccc2F)cc1Nc1ccnc2cn[nH]c12 , the value recorded as its IC50 is 15.8 nM

Given item COc1cccc2nccc(Nc3cc(-c4cc(Cl)ccc4F)ncc3C3CC3)c12 , the value recorded as its IC50 is 50.1 nM

Given item COc1cccc2nccc(Nc3ccnc(-c4cc(C)ccc4F)c3)c12 , the value recorded as its IC50 is 25.1 nM

Given item COc1cccc2nccc(Nc3cc(-c4cccc(Cl)c4)ncc3C)c12 , the value recorded as its IC50 is 31.6 nM

====

biological target: TGF-beta receptor type-1 (Homo sapiens, UniProt P36897); assay: Inhibition of ALK5 in human Calu6 cells assessed as reduction in Smad2/3 phosphorylation; format: cell-based
Recorded Endpoint: pEC50
pEC50 (log units): -log10 of the concentration in mol/L.

Known results for compounds:
                                     smiles  value
0  CNC(=O)n1ncc2nccc(Nc3ccnc(-c4cc(Cl)ccc4F)c3)c21   7.20
1  NC(=O)Cn1ncc2nccc(Nc3ccnc(-c4cc(F)ccc4F)c3)c21   5.90
2  Cc1cnc(-c2cc(Cl)ccc2F)cc1Nc1ccnc2cn(CC(N)=O)nc12   7.50

Given item Cc1cccc(-c2cc(Nc3ccnc4cn[nH]c34)c(C)cn2)n1 , the value recorded as its pEC50 is 6.70

====

target: hERG (KCNH2) (Homo sapiens, UniProt Q12809); assay: Inhibition of human ERG expressed in CHOK1 cells at 10 uM by automated whole cell patch clamp Qpatch method relative to control; type: cell-based; settings: CHO-K1 cells expressing human ERG
Sequence (Q12809 whole entry): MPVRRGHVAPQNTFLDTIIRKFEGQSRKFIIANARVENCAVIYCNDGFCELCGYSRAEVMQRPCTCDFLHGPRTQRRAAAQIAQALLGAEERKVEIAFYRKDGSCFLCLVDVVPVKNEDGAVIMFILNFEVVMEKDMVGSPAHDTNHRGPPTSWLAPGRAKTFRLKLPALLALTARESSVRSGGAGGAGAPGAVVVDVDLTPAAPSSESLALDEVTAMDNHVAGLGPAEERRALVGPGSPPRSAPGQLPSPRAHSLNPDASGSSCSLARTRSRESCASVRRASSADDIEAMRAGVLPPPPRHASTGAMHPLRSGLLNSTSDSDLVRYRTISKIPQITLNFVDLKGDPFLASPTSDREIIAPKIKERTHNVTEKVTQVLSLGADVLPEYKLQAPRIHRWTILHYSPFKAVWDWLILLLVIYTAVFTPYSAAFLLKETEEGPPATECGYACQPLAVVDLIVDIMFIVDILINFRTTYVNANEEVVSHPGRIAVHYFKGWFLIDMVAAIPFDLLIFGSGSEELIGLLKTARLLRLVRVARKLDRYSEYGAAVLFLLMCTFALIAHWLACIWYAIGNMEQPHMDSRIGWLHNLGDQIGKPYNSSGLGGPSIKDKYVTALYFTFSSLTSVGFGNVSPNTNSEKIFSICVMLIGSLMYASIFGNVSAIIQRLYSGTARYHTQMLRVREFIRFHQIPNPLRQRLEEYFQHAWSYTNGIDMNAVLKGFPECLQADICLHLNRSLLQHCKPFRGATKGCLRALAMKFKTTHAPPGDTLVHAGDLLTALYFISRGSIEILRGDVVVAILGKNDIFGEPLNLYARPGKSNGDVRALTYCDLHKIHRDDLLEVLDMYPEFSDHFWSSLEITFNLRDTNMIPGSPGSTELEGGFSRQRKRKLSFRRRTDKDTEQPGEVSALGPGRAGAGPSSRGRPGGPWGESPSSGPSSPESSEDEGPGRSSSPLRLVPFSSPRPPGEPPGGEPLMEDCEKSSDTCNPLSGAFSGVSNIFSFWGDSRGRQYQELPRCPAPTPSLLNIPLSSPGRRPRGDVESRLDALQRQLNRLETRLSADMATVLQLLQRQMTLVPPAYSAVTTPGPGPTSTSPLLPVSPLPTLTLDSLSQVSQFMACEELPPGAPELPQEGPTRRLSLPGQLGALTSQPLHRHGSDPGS
List of inhibition at 10 µM values.

Known results for compounds:
>>> print(df.to_string())
                                     smiles                            assayed_target      value
0  NC(=O)Cn1cc2nccc(Nc3ccnc(-c4cc(Cl)ccc4F)c3)c2n1  hERG (KCNH2) (Homo sapiens, UniProt Q12809)  41 to 59%
1  Cc1cnc(-c2cc(Cl)ccc2F)cc1Nc1ccnc2cn(CC(N)=O)nc12  hERG (KCNH2) (Homo sapiens, UniProt Q12809)  41 to 59%

Next:
Given item Cc1cnc(-c2cc(Cl)ccc2F)cc1Nc1ccnc2cnn(CC(N)=O)c12 , the value recorded as its inhibition at 10 µM is 41 to 59%

====

Target: TGF-beta receptor type-1 (Homo sapiens)
Sequence (P36897 whole entry): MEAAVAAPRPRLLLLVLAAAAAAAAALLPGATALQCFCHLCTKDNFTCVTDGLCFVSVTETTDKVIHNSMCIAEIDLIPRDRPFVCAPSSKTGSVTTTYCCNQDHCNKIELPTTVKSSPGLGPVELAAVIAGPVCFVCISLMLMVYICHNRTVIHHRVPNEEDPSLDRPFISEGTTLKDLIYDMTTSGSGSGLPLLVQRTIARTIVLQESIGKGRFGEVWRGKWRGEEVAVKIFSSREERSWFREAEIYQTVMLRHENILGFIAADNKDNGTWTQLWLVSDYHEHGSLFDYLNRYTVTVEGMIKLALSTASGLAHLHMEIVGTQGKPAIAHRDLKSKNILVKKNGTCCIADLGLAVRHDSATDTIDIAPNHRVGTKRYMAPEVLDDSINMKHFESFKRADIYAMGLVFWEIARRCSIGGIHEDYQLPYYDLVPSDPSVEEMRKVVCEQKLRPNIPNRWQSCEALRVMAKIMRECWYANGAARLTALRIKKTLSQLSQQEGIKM
Experiment: Inhibition of recombinant N-terminal GST tagged human ALK5 (200 to 503 residues) expressed in baculovirus expression system using FAM-NH2-KVLTQMGSPSIRCSS[PO4]VS peptide as substrate after 90 mins by LanthaScreen TR-FRET assay
Recorded Endpoint: pIC50
pIC50 (log units): -log10 of the concentration in mol/L.

Known results for compounds:
                                   compound  recorded_endpoint  value
0  Cc1cccc(-c2cc(Nc3ccnc4cn[nH]c34)c(C)cn2)n1              pIC50   8.30
1  CCn1cc2nccc(Nc3cc(-c4cc(C)ccc4F)ncc3C)c2n1              pIC50   8.00
2  Cc1cnc(-c2cc(F)ccc2F)cc1Nc1ccnc2cnn(CC(C)O)c12 (stereo unspecified)              pIC50   8.50

Given item CNC(=O)n1ncc2nccc(Nc3ccnc(-c4cc(F)ccc4F)c3)c21 , the value recorded as its pIC50 is 8.60

Given item Cc1ccc(F)c(-c2cc(Nc3ccnc4cn[nH]c34)ccn2)c1 , the value recorded as its pIC50 is 7.80

Given item COc1cccc2nccc(Nc3ccnc(-c4cccc(Cl)c4)c3)c12 , the value recorded as its pIC50 is 6.50
